Test system: Jurkat human leukemia T cells
Assay: Inhibition of Jurkat human leukemia T cell proliferation (MTT reduction)
Format: cell-based
Details: 100 μg/ml sequence, 48 h, 2.5×10^5 cells/ml
% INHIBITION of Jurkat human leukemia T cell proliferation under 20% gets T, anything at or over 20% gets F.

SEQUENCE CONTENT	CLASS ASSIGNMENT
GGGTTT [SEQ ID NO:40]	F
TGTGTGTGTGTGTGTGTGTGTGTG [SEQ ID NO:21]	F
TTTGTT [SEQ ID NO:23]	F
GTGTGT [SEQ ID NO:10 phosphorothioate]	T
GTGGGG [SEQ ID NO:48]	F
TCTCTCTCTCTCTCTCTCTCTCTCTCT (unmodified DNA) [SEQ ID NO:6]	T
